testName: Liver microsomes metabolic stability assay, rat
Type: in vitro ADME
particulars: male, rat liver microsomes 0.5 mg/mL, 37° C., read-out: t1/2 Rat
measurementType: half-life at 2 μM (min)

Past entries and their recorded results:
Cc1nnc(-c2cnn3ccc(N4CCCC4c4cc(F)ccc4F)nc23)[nH]1 (stereo not drawn) [Comparative compound A, reference compound] ... 17.7
Fc1ccc(F)c([C@H]2CCCN2c2ccn3ncc(-c4nc5cc(OC(F)(F)F)ccc5[nH]4)c3n2)c1 [Compound 71] ... 114
C[S+]([O-])c1cc2nc(-c3cnn4ccc(N5CCC[C@@H]5c5cc(F)ccc5F)nc34)[nH]c2cc1C#N (stereo partly drawn) [Compound 171] ... 23.8

(a) Fc1ccc(F)c([C@H]2CCCN2c2ccn3ncc(-c4nc5cnccc5[nH]4)c3n2)c1 [Compound 65]
(b) Fc1ccc(F)c([C@H]2CCCN2c2ccn3ncc(-c4nc5cc6c(cc5[nH]4)OCCO6)c3n2)c1 [Compound 96]
(c) Fc1ccc(F)c([C@H]2CCCN2c2ccn3ncc(-c4nc5cc6c(cc5[nH]4)OC(F)(F)O6)c3n2)c1 [Compound 79]
# rank by half-life at 2 μM, ascending (min first) Answer by listing the labels in the requested order.
b, a, c

(1) Fc1ccc(F)c([C@H]2CCCN2c2ccn3ncc(-c4nnc(-c5ccc6c(c5)CCNC6)[nH]4)c3n2)c1 [Compound 36]
(2) COCCOc1cc2[nH]c(-c3cnn4ccc(N5CCC[C@@H]5c5cc(F)ccc5F)nc34)nc2cc1C#N [Compound 169]
When 1 and 2 are compared, which has the higher number for half-life at 2 μM? Give the label under which the chosen entry appears.
1

(I) COc1cc2nc(-c3cnn4ccc(N5CCC[C@@H]5c5cc(F)ccc5F)nc34)[nH]c2cc1C#N [Compound 125]
(II) N#Cc1cc2nc(-c3cnn4ccc(N5CCC[C@@H]5c5cc(F)ccc5F)nc34)[nH]c2cc1C#N [Compound 148]
(III) O=C(O)c1nnc(-c2cnn3ccc(N4CCC[C@@H]4c4cc(F)ccc4F)nc23)[nH]1 [Compound 17]
(IV) CNC(=O)c1cc2nc(-c3cnn4ccc(N5CCC[C@@H]5c5cc(F)ccc5F)nc34)[nH]c2cc1OC [Compound 160]
Could you please sort these 4 entries by half-life at 2 μM from high to low? Answer by listing the labels in the requested order.
III, II, I, IV
(III: 622 min, II: 385 min, I: 92.4 min, IV: 15 min)
